Consider molecules characterized by their pIC50 with human Sec24a (Homo sapiens).
Sequence (O95486 341-1093): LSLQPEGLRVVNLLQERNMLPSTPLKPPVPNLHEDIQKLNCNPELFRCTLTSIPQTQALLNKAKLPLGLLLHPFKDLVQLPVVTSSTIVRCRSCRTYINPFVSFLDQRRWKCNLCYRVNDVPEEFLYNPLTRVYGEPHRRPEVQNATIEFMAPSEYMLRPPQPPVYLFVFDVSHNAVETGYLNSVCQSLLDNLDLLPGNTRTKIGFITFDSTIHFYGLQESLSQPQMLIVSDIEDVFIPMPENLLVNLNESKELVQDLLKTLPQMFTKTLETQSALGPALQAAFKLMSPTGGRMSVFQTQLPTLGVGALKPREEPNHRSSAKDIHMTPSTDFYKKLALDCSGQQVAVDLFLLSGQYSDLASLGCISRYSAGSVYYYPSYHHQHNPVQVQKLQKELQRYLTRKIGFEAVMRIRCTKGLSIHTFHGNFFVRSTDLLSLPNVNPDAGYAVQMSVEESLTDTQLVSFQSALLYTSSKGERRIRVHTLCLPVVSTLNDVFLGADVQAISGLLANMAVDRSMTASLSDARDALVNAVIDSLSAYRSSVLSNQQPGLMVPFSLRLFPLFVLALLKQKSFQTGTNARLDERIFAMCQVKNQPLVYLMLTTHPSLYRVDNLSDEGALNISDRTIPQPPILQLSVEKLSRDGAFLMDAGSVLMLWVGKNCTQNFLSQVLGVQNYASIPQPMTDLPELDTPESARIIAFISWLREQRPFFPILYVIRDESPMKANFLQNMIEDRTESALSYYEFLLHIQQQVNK
Note on units: pIC50 is unitless, being -log10 of a concentration expressed in mol/L.

Answered cases to consult:
O=C(O)CCc1ccc(O)cc1 [Hydroxy-PPA, 3-(4-hydroxyphenyl)propionate] ... 2.04
O=C(O)CCCc1ccccc1 [4-PBA, 4-phenylbutyrate] ... 2.44
O=C(O)CCCCc1ccccc1 [5-PVA, 5-phenylvalerate] ... 3.00
Cc1ccc(CCCC(=O)O)cc1 [Tolyl-BA, 4-(4-tolyl)butyrate] ... 2.77
COc1ccc(CCCC(=O)O)cc1 [Methoxy-PBA, 4-(4-methoxyphenyl)butyrate] ... 2.38
O=C(O)CCc1ccccc1 [3-PPA, 3-phenylpropionate] ... 2.39

// moving on: another record for pIC50
Measured pIC50 for this entry O=C(O)CCCc1ccc(O)cc1 [Hydroxy-PBA, 4-(4-hydroxyphenyl)butyrate] on human Sec24a (Homo sapiens): 2.30
